# Test system: Cryptococcus neoformans
# measurement_context: Concentration 20 uM; ASSAY_TEST Inhibition of Fungal Growth; detection method Resazurin; Absorption (OD600-OD570); plate type 384well; NBS; CORNING #3640
# Description: Antifungal activity against Cryptococcus neoformans H99 ATCC 208821 (CO-ADD:FG_002); MIC in YNB media using NBS plates, by Resazurin OD(600-570)
Entries with a potency or affinity are not part of this list.
attribute_measured: Inhibition (%)

compound: CCOC(=O)c1c(C)nc(C)c(C(=O)OCC)c1-c1cccnc1
tested_target: Cryptococcus neoformans
attribute_measured: Inhibition
experimental_result: -2.16
--
compound: O=C(Nc1ccc(NC(=O)c2ccncc2)cc1)c1ccncc1
tested_target: Cryptococcus neoformans
attribute_measured: Inhibition
experimental_result: -0.9
--
compound: O=[N+]([O-])c1cc(-c2cccnc2)[nH]n1
tested_target: Cryptococcus neoformans
attribute_measured: Inhibition
experimental_result: -1.42
--
compound: CCOC(=O)C1C(=O)C(=O)N(C(C)C)C1C(=O)OCC (stereo not drawn)
tested_target: Cryptococcus neoformans
attribute_measured: Inhibition
experimental_result: 17.48
--
compound: Oc1ncnc(CN2CCCCC2)c1O
tested_target: Cryptococcus neoformans
attribute_measured: Inhibition
experimental_result: -11.85
--
compound: C#CC1(N2CCCCC2)CCCCC1
tested_target: Cryptococcus neoformans
attribute_measured: Inhibition
experimental_result: -12.88
--
compound: CCCn1cnc2c(S)nc(N)nc21
tested_target: Cryptococcus neoformans
attribute_measured: Inhibition
experimental_result: -9.79
--
compound: CCOC(=O)Nc1ccc2nc(Sc3ccc(Cl)cc3)sc2c1
tested_target: Cryptococcus neoformans
attribute_measured: Inhibition
experimental_result: -3.93
